- test-target: GST-Xa-hAAK1 (Homo sapiens (Human), UniProt Q2M2I8)
- Sequence (Q2M2I8 whole entry): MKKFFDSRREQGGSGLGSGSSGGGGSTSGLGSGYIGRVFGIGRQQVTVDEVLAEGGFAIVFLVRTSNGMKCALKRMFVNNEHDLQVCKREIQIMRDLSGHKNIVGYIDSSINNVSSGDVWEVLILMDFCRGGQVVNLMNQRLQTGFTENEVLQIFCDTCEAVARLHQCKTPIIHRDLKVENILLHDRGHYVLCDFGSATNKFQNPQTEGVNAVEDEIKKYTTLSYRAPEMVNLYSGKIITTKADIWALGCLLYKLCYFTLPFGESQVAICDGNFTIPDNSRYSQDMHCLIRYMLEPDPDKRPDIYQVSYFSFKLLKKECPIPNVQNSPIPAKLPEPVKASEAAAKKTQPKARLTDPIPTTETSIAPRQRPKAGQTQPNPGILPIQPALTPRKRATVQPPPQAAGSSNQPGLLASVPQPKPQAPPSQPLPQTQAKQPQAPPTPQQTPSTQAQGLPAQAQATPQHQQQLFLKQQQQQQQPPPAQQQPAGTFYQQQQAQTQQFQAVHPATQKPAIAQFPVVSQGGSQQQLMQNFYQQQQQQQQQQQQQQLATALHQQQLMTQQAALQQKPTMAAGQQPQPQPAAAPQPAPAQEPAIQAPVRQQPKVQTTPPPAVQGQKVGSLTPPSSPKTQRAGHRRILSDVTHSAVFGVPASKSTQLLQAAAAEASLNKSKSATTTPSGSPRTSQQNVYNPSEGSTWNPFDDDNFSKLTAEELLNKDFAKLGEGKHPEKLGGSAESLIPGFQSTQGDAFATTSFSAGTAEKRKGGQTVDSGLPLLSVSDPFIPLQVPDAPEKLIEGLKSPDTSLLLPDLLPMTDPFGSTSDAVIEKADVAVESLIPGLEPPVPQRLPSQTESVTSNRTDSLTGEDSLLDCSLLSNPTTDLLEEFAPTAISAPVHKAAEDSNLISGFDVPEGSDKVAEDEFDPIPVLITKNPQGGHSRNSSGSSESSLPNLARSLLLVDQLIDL
- assay: AAK1 Kinase Assay
- Assay type: biochemical
- condition-context: ATP 22 μM; 3 hours at room temperature; listed as IC50 ranges
quantity: IC50

Answered cases to consult:
| compound | IC50 |
| --- | --- |
| CNC1CCN(Cc2ccn3ncnc(Nc4cccc(-c5noc(C(C)C)n5)c4)c23)CC1 [Example 39] | 0.01 to 0.1 µM |
| CC(C)c1nnc(-c2cccc(Nc3ncnn4ccc(CN5CC(N)C5)c34)c2)s1 [Example 28] | 0.1 to 1 µM |
| Cc1nnc(-c2cccc(Nc3ncnn4ccc(CN5CC6CNCC6C5)c34)c2)s1 (centres unmarked) [Example 20] | 1 to 5 µM |
| CNCc1ccn2ncnc(Nc3cccc(-c4nnn(C(C)C)n4)c3)c12 [Example 63] | 0.1 to 1 µM |
| NC1CCN(Cc2ccn3ncnc(Nc4cc(O)cc(-c5ncco5)c4)c23)CC1 [Example 7] | 0.1 to 1 µM |

Enquiry: Item under review: CC(C)n1nnc(-c2cccc(Nc3ncnn4ccc(CN5CCNCC5)c34)c2)n1 [Example 34] . Reported IC50?
Return: 0.01 to 0.1 µM

Enquiry: Item under review: CC(C)c1nnc(-c2cccc(Nc3ncnn4ccc(CN5CCCC(CN)C5)c34)c2)s1 (centres unmarked) [Example 71] . Reported IC50?
Return: 1 to 5 µM

Enquiry: Item under review: CNC1CCN(Cc2ccn3ncnc(Nc4cccc(-c5noc(C(C)(C)C)n5)c4)c23)CC1 [Example 41] . Reported IC50?
Return: 0.01 to 0.1 µM

* * *

- test-target: GST-Xa-hAAK1 (Homo sapiens (Human))
- assay: AAK1 Kinase Assay
- Format: biochemical
- condition-context: ATP 22 μM; 3 hours at room temperature; listed as IC50 ranges
pIC50: −log10 of the molar value.
The following molecules are listed with their measured pIC50 values.

| molecule | pIC50 |
| --- | --- |
| CC(C)c1nc(-c2ccc(O)c(Nc3ncnn4ccc(CN5CCC(N)CC5)c34)c2)no1 | 7.00 to 8.00 |

Enquiry: Item under review: "CC(C)c1nc(-c2ccc(F)c(Nc3ncnn4ccc(CN5CCC(N)CC5)c34)c2)no1" . Reported pIC50?
Return: 6.00 to 7.00

Enquiry: Item under review: "CC(C)CNC(=O)c1cccc(Nc2ncnn3ccc(CN4CCC(N)CC4)c23)c1" . Reported pIC50?
Return: 7.00 to 8.00

Enquiry: Item under review: "CNC1CCN(Cc2ccn3ncnc(Nc4cccc(-c5nnc(C6CC6)s5)c4)c23)CC1" . Reported pIC50?
Return: 7.00 to 8.00

Enquiry: Item under review: "CC(C)c1nnc(-c2cccc(Nc3ncnn4ccc(CN5CCNCC5)c34)c2)s1" . Reported pIC50?
Return: 6.00 to 7.00

Enquiry: Item under review: "CC(C)c1nnc(-c2cccc(Nc3ncnn4ccc(CNCCCN)c34)c2)s1" . Reported pIC50?
Return: 6.00 to 7.00

Enquiry: Item under review: "CNC1CCN(Cc2ccn3ncnc(Nc4cccc(-c5nnc(C(C)C)o5)c4)c23)CC1" . Reported pIC50?
Return: 7.00 to 8.00

Enquiry: Item under review: "CC(C)n1nnc(-c2ccc(O)c(Nc3ncnn4ccc(CN5CCC(N)CC5)c34)c2)n1" . Reported pIC50?
Return: 8.00 to 9.00

Enquiry: Item under review: CC(CN)CNCc1ccn2ncnc(Nc3cccc(-c4nnc(C(C)C)s4)c3)c12 (stereo not shown) . Reported pIC50?
Return: 6.00 to 7.00

Enquiry: Item under review: "CC(C)n1nnc(-c2cc(Nc3ncnn4ccc(CN5CCC(N)CC5)c34)cc(C(F)F)c2)n1" . Reported pIC50?
Return: 7.00 to 8.00

Enquiry: Item under review: CNC1CCN(Cc2ccn3ncnc(Nc4cccc(-c5nnc(C(C)C)s5)c4)c23)C1 (stereo not shown) . Reported pIC50?
Return: 6.00 to 7.00

Enquiry: Item under review: "CC(C)c1nc(-c2cccc(Nc3ncnn4ccc(CN5CCC(N)CC5)c34)c2)no1" . Reported pIC50?
Return: 7.00 to 8.00

Enquiry: Item under review: "CC(C)n1nnc(-c2cccc(Nc3ncnn4ccc(CN5CC(C#N)C5)c34)c2)n1" . Reported pIC50?
Return: 6.00 to 7.00

Enquiry: Item under review: "CNC1CCN(Cc2ccn3ncnc(Nc4cccc(-c5nnn(C(C)C)n5)c4)c23)CC1" . Reported pIC50?
Return: 7.00 to 8.00

Enquiry: Item under review: "CC(C)c1nnc(-c2cccc(Nc3ncnn4ccc(CN5CCC(N)CC5)c34)c2)s1" . Reported pIC50?
Return: 7.00 to 8.00

Enquiry: Item under review: "CC(C)n1nnc(-c2cccc(Nc3ncnn4ccc(CN5CCOCC5)c34)c2)n1" . Reported pIC50?
Return: 7.00 to 8.00

Enquiry: Item under review: "Cc1nnc(-c2cccc(Nc3ncnn4ccc(CN5CCC(N)CC5)c34)c2)s1" . Reported pIC50?
Return: 6.00 to 7.00

Enquiry: Item under review: "CC(C)n1nnc(-c2cccc(Nc3ncnn4ccc(CN5CCN(C)CC5)c34)c2)n1" . Reported pIC50?
Return: 6.00 to 7.00

Enquiry: Item under review: "CC(C)c1nnc(-c2cccc(Nc3ncnn4ccc(CN5CC[C@@H](N)[C@H](O)C5)c34)c2)s1" . Reported pIC50?
Return: 7.00 to 8.00

* * *

The following compounds are listed with their measured pIC50 values.
- test-target: GST-Xa-hAAK1 (Homo sapiens (Human))
- assay: AAK1 Kinase Assay
- Type: biochemical
- condition-context: ATP 22 μM; 3 hours at room temperature; listed as IC50 ranges
pIC50: −log10 of the molar value.

Answered cases to consult:
| compound | pIC50 |
| --- | --- |
| CC(=O)NC1CCN(Cc2ccn3ncnc(Nc4cccc(-c5nnc(C(C)C)s5)c4)c23)CC1 | 7.00 to 8.00 |
| CC(C)c1nnc(-c2cccc(Nc3ncnn4ccc(CN5CCC(N)C5)c34)c2)s1 (stereo not shown) | 6.00 to 7.00 |
| CC(C)(CO)c1nc(-c2cccc(Nc3ncnn4ccc(CN5CCC(N)CC5)c34)c2)no1 | 7.00 to 8.00 |

Read the next record carefully.
Enquiry: Item under review: "CC(C)C[C@@H](N)C(=O)Nc1cccc(Nc2ncnn3ccc(CN4CCC(N)CC4)c23)c1" . Reported pIC50?
Return: 6.00 to 7.00

* * *

- test-target: GST-Xa-hAAK1 (Homo sapiens (Human))
- assay: AAK1 Kinase Assay
- Assay type: biochemical
- condition-context: ATP 22 μM; 3 hours at room temperature
quantity: pIC50
# log scale: pIC50 equals minus log10 of the concentration in mol/L

Answered cases to consult:
| molecule | quantity | quantitative-readout |
| --- | --- | --- |
| CC(C)n1nnc(-c2cc(Nc3ncnn4ccc(CN5CCC(N)CC5)c34)ccc2F)n1 [Example 49] | pIC50 | 7.68 |
| Cc1ccn2ncnc(Nc3cccc(-c4nnn(C(C)C)n4)c3)c12 [Example 88] | pIC50 | 7.66 |
| Cc1ccn2ncnc(Nc3cccc(-c4noc(C(C)C)n4)c3)c12 [Example 86] | pIC50 | 6.91 |

Enquiry: Item under review: CCOC(=O)c1ccn2ncnc(Nc3cccc(-c4nnc(C(C)C)s4)c3)c12 [Example 94] . Reported pIC50?
Return: 6.32

Enquiry: Item under review: CC(C)c1nnc(-c2cccc(Nc3ncnn4cccc34)c2)o1 [Example 80] . Reported pIC50?
Return: 6.42

Enquiry: Item under review: CC(C)c1nnc(-c2cccc(Nc3ncnn4cccc34)c2)s1 [Example 79] . Reported pIC50?
Return: 6.57

* * *

The following compounds are listed with their measured pIC50 values.
- test-target: UniProtKB Q2M2I8
- assay: AAK1 Kinase Assay
- Type: biochemical
- condition-context: ATP 22 μM; 3 hours at room temperature
# log scale: pIC50 equals minus log10 of the concentration in mol/L

Answered cases to consult:
| compound | pIC50 |
| --- | --- |
| Cn1ccc(-c2cccc(Nc3ncnn4ccc(CN5CCC(N)CC5)c34)c2)n1 [Example 12] | 6.35 |
| CC(C)(CCl)c1nc(-c2cccc(Nc3ncnn4cccc34)c2)no1 [Example 78] | 6.95 |
| CC(C)n1nnc(-c2cccc(Nc3ncnn4ccc(C(=O)N5CCC(N)CC5)c34)c2)n1 [Example 109] | 5.32 |
| CC(C)n1nnc(-c2cccc(Nc3ncnn4ccc(CN(C)C)c34)c2)n1 [Example 102] | 7.31 |
| CC(C)n1nnc(-c2cc(CO)cc(Nc3ncnn4cccc34)c2)n1 [Example 83] | 6.39 |
| CCOC(=O)c1ccn2ncnc(Nc3cc(O)cc(-c4nnn(C(C)C)n4)c3)c12 [Example 95] | 5.60 |
| Cc1ccn2ncnc(Nc3cccc(-c4noc(C(C)(C)CCl)n4)c3)c12 [Example 90] | 7.28 |
| Cc1nnc(-c2cccc(Nc3ncnn4ccc(CN5CC(N)C5)c34)c2)s1 [Example 19] | 5.67 |

Enquiry: Can you look up pIC50 on UniProtKB Q2M2I8 for CC(C)n1nnc(-c2cccc(Nc3ncnn4ccc(CN)c34)c2)n1 [Example 99] ?
Return: 6.66

Enquiry: Can you look up pIC50 on UniProtKB Q2M2I8 for CC(C)n1nnc(-c2cccc(Nc3ncnn4ccc(CN5CCC(N)CC5)c34)c2)n1 [Example 8] ?
Return: 8.14

Enquiry: Can you look up pIC50 on UniProtKB Q2M2I8 for COc1cc(Nc2ncnn3ccc(C)c23)cc(-c2noc(C(C)C)n2)c1 [Example 92] ?
Return: 5.93

Enquiry: Can you look up pIC50 on UniProtKB Q2M2I8 for CC(C)NC(=O)c1ccn2ncnc(Nc3cccc(-c4nnn(C(C)C)n4)c3)c12 [Example 106] ?
Return: 5.63

Enquiry: Can you look up pIC50 on UniProtKB Q2M2I8 for CCNC(=O)c1ccn2ncnc(Nc3cccc(-c4nnn(C(C)C)n4)c3)c12 [Example 104] ?
Return: 6.71

Enquiry: Can you look up pIC50 on UniProtKB Q2M2I8 for CC(C)n1nnc(-c2cccc(Nc3ncnn4ccc(C(=O)N(C)C)c34)c2)n1 [Example 101] ?
Return: 6.16

Enquiry: Can you look up pIC50 on UniProtKB Q2M2I8 for CC(C)c1nc(-c2cc(O)cc(Nc3ncnn4cccc34)c2)no1 [Example 85] ?
Return: 7.09

Enquiry: Can you look up pIC50 on UniProtKB Q2M2I8 for CC(C)(CO)c1nc(-c2cccc(Nc3ncnn4cccc34)c2)no1 [Example 81] ?
Return: 6.38

Enquiry: Can you look up pIC50 on UniProtKB Q2M2I8 for CC(C)n1nnc(-c2cccc(Nc3ncnn4ccc(CO)c34)c2)n1 [Example 98] ?
Return: 7.04

Enquiry: Can you look up pIC50 on UniProtKB Q2M2I8 for CC(C)n1nnc(-c2cc(O)cc(Nc3ncnn4cccc34)c2)n1 [Example 84] ?
Return: 7.12

Enquiry: Can you look up pIC50 on UniProtKB Q2M2I8 for CC(C)n1nnc(-c2cccc(Nc3ncnn4ccc(CN5CCC(C#N)CC5)c34)c2)n1 [Example 65] ?
Return: 7.14

Enquiry: Can you look up pIC50 on UniProtKB Q2M2I8 for Cc1ccn2ncnc(Nc3cccc(-c4noc(C(C)(C)CN)n4)c3)c12 [Example 91] ?
Return: 7.20

Enquiry: Can you look up pIC50 on UniProtKB Q2M2I8 for Cc1ccn2ncnc(Nc3cccc(-c4noc(C(C)(C)CO)n4)c3)c12 [Example 89] ?
Return: 6.68

Enquiry: Can you look up pIC50 on UniProtKB Q2M2I8 for COC(=O)c1cn2ncnc(Nc3cccc(-c4nnn(C(C)C)n4)c3)c2c1CN1CCC(N)CC1 [Example 111] ?
Return: 7.80

Enquiry: Can you look up pIC50 on UniProtKB Q2M2I8 for CC(C)n1nnc(-c2cccc(Nc3ncnn4ccc(CN5[C@@H]6CC[C@H]5CC(O)C6)c34)c2)n1 (some centres unmarked) [Example 59] ?
Return: 6.89

Enquiry: Can you look up pIC50 on UniProtKB Q2M2I8 for COCCNC(=O)c1ccn2ncnc(Nc3cccc(-c4nnn(C(C)C)n4)c3)c12 [Example 108] ?
Return: 6.54

Enquiry: Can you look up pIC50 on UniProtKB Q2M2I8 for COCc1ccn2ncnc(Nc3cccc(-c4nnn(C(C)C)n4)c3)c12 [Example 100] ?
Return: 7.27

Enquiry: Can you look up pIC50 on UniProtKB Q2M2I8 for CNC1CCN(Cc2ccn3ncnc(Nc4cc(F)cc(-c5noc(C(C)C)n5)c4)c23)CC1 [Example 44] ?
Return: 8.00
